# condition_context: buffer; pH 7.4; 200.0 µM
# cutoff 7 µg/mL applies to solubility kinetic; >= gives met, < gives not met

# compound, assigned_label
data = [
    ("Cc1cc(=O)oc2cc(NC(=O)c3cc(F)ccc3F)ccc12", "not met"),
    ("Cc1cc(C(=O)O)c(C)n1Cc1ccncc1", "met"),
    ("COc1ccc(N2C(=O)C(F)(F)C2c2ccccc2F)cc1 (centres undefined)", "not met"),
    ("Cc1cc(C)nc(Nc2ccccc2Cl)n1.Cl", "met"),
    ("COc1ccc(-n2c(SCC(=O)N(C)C3CCS(=O)(=O)C3)nc3ccc(O)cc3c2=O)cc1OC (centres undefined)", "met"),
    ("Cc1cccc(N=C2CSC(=O)N2)c1", "met"),
    ("CCOc1cc(N2CCOCC2)c(OCC)cc1NC(=O)C(C)(C)C", "met"),
    ("CCN(C(=O)Cn1c(=O)oc2ccccc21)c1cccc(C)c1", "met"),
    ("Cc1ccc(N(CC(=O)N2CCCC2)S(C)(=O)=O)c(C)c1", "met"),
    ("Cc1ccc(NC(=O)COC(=O)c2cccnc2)c(C)c1", "met"),
    ("Cc1cnc([N+](=O)[O-])n1CCOC(=O)NC(=O)c1ccccc1", "met"),
    ("Br.Fc1cc(Cl)ccc1NC1=NCCCCC1", "met"),
    ("N#Cc1ccccc1NC(=O)c1ccc2c(c1)OCCO2", "met"),
    ("Cc1ccc(C2(c3noc(CN(C)Cc4cccnc4)n3)CCCC2)cc1", "met"),
    ("Cc1nc(N)sc1-c1csc(Nc2cccc(C(=O)O)c2)n1", "met"),
    ("CCOC(=O)Cc1csc(NC(=O)CN2C(=O)c3ccccc3C2=O)n1", "met"),
    ("Cc1ccc(C)c(OCCCC(=O)NC2CCCCC2)c1", "not met"),
    ("CC(C)c1ccc(NC(=O)Cc2c(C(=O)O)n(C)c3ccccc23)cc1", "met"),
    ("COc1ccc(NS(=O)(=O)c2ccc3[nH]c(=O)[nH]c3c2)cc1", "met"),
    ("Cc1ccc(NC(=O)CC(C)CC(=O)NCc2ccccc2)cc1Cl (centres undefined)", "not met"),
    ("CCOC(=O)Nc1cccc(OCC(=O)Nc2ccc3c(c2)CCC3)c1", "not met"),
    ("CCCOc1cccc(C(=O)NCCNC(=O)c2ccco2)c1", "met"),
    ("O=C(c1cc2ccccc2cc1O)N1CCCC(C(F)(F)F)C1 (centres undefined)", "met"),
]

###

# condition_context: buffer; pH 7.4; 200.0 µM

# compound, solubility kinetic
records = [
    ("COc1ccc(CNC(=O)CCN2C(=S)NC(C)(C)CC2C)cc1 (stereo unspecified)", "> 52.4 µg/mL"),
    ("N#C/C(=C(/O)C(Cl)(Cl)Cl)c1nc2ccccc2[nH]1", "12.1 µg/mL"),
    ("Cc1cccc(NC(=O)CSc2nc3ccccc3c(=O)n2CC2CCCO2)c1 (stereo unspecified)", "4.2 µg/mL"),
    ("CSc1ncc(CN2CCN(CCC(C)C)C(CCO)C2)cn1 (stereo unspecified)", "41.7 µg/mL"),
    ("CS(=O)(=O)Nc1ccc(S(=O)(=O)N2CCCCCC2)cc1", "48.3 µg/mL"),
    ("CCOc1ccc(C(=O)OC(C)CN2CCN(C)CC2)cc1.Cl (stereo unspecified)", "> 51.4 µg/mL"),
]
